Study system: UniProtKB Q01726
Sequence (Q01726 whole entry): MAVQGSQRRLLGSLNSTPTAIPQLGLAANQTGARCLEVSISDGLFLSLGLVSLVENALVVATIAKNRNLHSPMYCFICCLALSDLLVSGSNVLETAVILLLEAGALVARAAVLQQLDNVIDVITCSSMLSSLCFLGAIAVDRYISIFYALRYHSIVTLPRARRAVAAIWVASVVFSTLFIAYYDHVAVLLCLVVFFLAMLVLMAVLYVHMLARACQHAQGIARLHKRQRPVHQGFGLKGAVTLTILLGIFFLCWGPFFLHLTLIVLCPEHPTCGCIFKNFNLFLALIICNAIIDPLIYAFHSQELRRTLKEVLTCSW
Test details: cAMP accumulation in MM96L cells transiently transfected with wild type MC1R
Assay type: cell-based
Measurement setup: 30 min stimulation with 10 μM compound
Record form. Attribute: human MC1R agonism (cAMP, fold incease over basal level). Fill in for each entry.
Answers are plain numbers, in fold.

[[record]]
compound = "N=C(N)NCCC[C@H]1C(=O)N(C(c2ccccc2)c2ccccc2)CC[C@H]2CN(Cc3ccc(-c4ccccc4)cc3)C(=O)N21 [Compound 110]"
study_system = "UniProtKB Q01726"
measured_result = 1.5


For each of the items listed, what is its human MC1R agonism (cAMP, fold incease over basal level)?
1. N=C(N)NCCC[C@H]1N[C@@H](CNC(=O)c2ccc(-c3ccccc3)cc2)CCN(C(c2ccccc2)c2ccccc2)C1=O [Compound 186]
2. N=C(N)NCCC[C@@H]1N[C@@H](CNC(=O)c2ccc(-c3ccccc3)cc2)CCN(C(c2ccccc2)c2ccccc2)C1=O [Compound 185]
3. NCC[C@@H]1N[C@H](CNC(=O)/C=C/c2ccc(Cl)cc2)CCN(CC(c2ccccc2)c2ccccc2)C1=O [Compound 136]

Key:
[2.5, 1.5, 1.5]
